Molecular target: C-C chemokine receptor type 2 (Homo sapiens, UniProt P41597)
Sequence (P41597 whole entry, looked up): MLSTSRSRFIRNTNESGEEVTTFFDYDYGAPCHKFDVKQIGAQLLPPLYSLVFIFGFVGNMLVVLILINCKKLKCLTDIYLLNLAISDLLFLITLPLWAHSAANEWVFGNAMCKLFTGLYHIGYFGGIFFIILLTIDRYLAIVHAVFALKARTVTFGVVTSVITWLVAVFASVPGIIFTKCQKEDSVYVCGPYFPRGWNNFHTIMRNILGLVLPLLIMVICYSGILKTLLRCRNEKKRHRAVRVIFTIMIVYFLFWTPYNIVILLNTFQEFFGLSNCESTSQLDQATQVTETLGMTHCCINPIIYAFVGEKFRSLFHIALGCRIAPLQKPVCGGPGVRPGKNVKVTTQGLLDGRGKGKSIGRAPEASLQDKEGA
Assay: Antagonist activity at CCR2 in human THP1 cells assessed as inhibition of CCL2-induced chemotaxis at 1 uM in presence of 1% human serum
Format: functional, cell-based
Details: THP-1
Below, each entry is listed with its recorded inhibition.
quantity: inhibition (%)

- O=S(=O)(Nc1cc(Cl)cnc1Oc1cncc(Cl)c1)c1ccc(Cl)c(Cl)c1: 0
- O=C(O)c1cncc(Oc2ncc(Cl)cc2NS(=O)(=O)c2ccc(Cl)c(Cl)c2)c1: 0
- Cc1ncccc1Oc1ncc(Cl)cc1NS(=O)(=O)c1ccc(Cl)c(Cl)c1: 50
- Cc1ncccc1Oc1ncc(C#N)cc1NS(=O)(=O)c1ccc(Cl)c(Cl)c1: 12
- O=C(O)c1ccccc1Oc1cnccc1NS(=O)(=O)c1ccc(Cl)c(Cl)c1: 0
